Measured values drawn from the supplement of paper PMC4466140 for this set.

molecular target: ScHse1; assay: SPOT peptide array binding signal intensity (averaged, normalized) (arbitrary units (background-subtracted, floor 0; scale differs between SH3 domains)); higher = stronger binding of the SH3 domain to the peptide
MEASURED ATTRIBUTE: SPOT peptide array binding signal intensity
One number for each entry.

BINDER: IFLRISINFPLNYPN
VALUE OBSERVED: 3840
//
BINDER: SSSSSPPPLPTRRDH
VALUE OBSERVED: 15

Provide the reported SPOT peptide array binding signal intensity of each entry below, same order.
1. SRYRRPLTLLLLKPF
2. VSKLRSPNTPRRLRK

Reply:
2310
701
